- SYSTEM_TESTED: SUMO-conjugating enzyme UBC9 (Homo sapiens)
- EXPERIMENTAL_DETAILS: blockers of UBC9-mediated SUMO conjugation – biochemical, AlphaScreen, SUMOylation inhibitor project, confirmation (AID 2018)
- ASSAY_CONTEXT: AlphaScreen in vitro SUMOylation assay; at 35 µM
In all, about 1,200 compounds went through this assay and about 600 (50%) were called active. Cut-off read from the data, not from the text of the source: active = inhibition above about 42%; inactive = the rest. The set was probably picked from earlier hits. This is one part of the list. Results with a measured potency or affinity are listed apart.
Labels: active, inactive

>>> discrete_label("COc1cc(CNc2ccc(O)cc2)cc(Br)c1OCc1ccccc1")
"active"
>>> discrete_label("COc1ccc(N2C(=O)[C@@H]3[C@H](C2=O)[C@H]2c4ccccc4C=CN2[C@@H]3C(C)=O)cc1")
"active"
>>> discrete_label("O=C(NCc1ccccc1)Nc1cccn(Cc2ccccc2F)c1=O")
"inactive"
>>> discrete_label("COc1ccc(-n2c(NC(=O)c3ccco3)c(C#N)c3nc4ccccc4nc32)cc1")
"active"
>>> discrete_label("Oc1ccc(N=Cc2ccc(OCc3ccccc3)cc2)cc1")
"inactive"
>>> discrete_label("CN1CCc2cc3c(c4c2[C@H]1[C@H](O)c1ccccc1-4)OCO3")
"active"
>>> discrete_label("Cc1c(N=C2C=CC(=O)c3ccccc32)c(=O)n(-c2ccccc2)n1C")
"active"
>>> discrete_label("O=C(Nc1cccc2cccc(NC(=O)c3ccco3)c12)c1ccco1")
"inactive"
>>> discrete_label("CCOC(=O)c1c(NC(=O)c2ccco2)n(C2CCCCC2)c2nc3ccccc3nc12")
"active"
>>> discrete_label("CC(C)CC(=O)Nc1ccc(C(=O)Cn2nc(C(=O)O)c3ccccc3c2=O)cc1")
"inactive"
